Reference for the values: patent US20250223280A1

Form field: pKd (one value per entry).
Target: IgG
Assay: SPR, IgG immobilised on CM5 chip, compound as analyte; value from the legend of the grade (++++ = Kd <100 nM)
pKd: −log10 of the molar value. Bridges are numbered along the chain shown (N, C = ends). [ ]: non-standard residue; d: D form. Pro(4S-NH2) = N[C@@H]1CN[C@H](C(=O)O)C1

Consider the worked cases shown below.
binder	pKd
cyclo([Pro(4S-NH2)]DCAWHLGALVWCT[dP]) (disulfide 3-13; SMILES CC(C)C[C@@H]1NC(=O)[C@H](C)NC(=O)CNC(=O)[C@H](CC(C)C)NC(=O)[C@H](Cc2c[nH]cn2)NC(=O)[C@H](Cc2c[nH]c3ccccc23)NC(=O)[C@H](C)NC(=O)[C@@H]2CSSC[C@H](NC(=O)[C@H](Cc3c[nH]c4ccccc34)NC(=O)[C@H](C(C)C)NC1=O)C(=O)N[C@@H]([C@@H](C)O)C(=O)N1CCC[C@@H]1C(=O)N1C[C@@H](N)C[C@H]1C(=O)N[C@@H](CC(=O)O)C(=O)N2) [Intermediate 17]	> 7.00
PDCAWHLGELVWCTP (residue 1 = (2S,4S)-4-aminoproline (free 4-amino group); residue 15 = D-Pro; backbone cyclised head to tail; disulfide Cys3-Cys13) [Intermediate 5]	> 7.00

We now examine a further binder.
Req: Quick check: pKd of PDCAWHLGELVWCTP (residue 1 = (2S,4S)-4-aminoproline; residue 12 = D-Trp; residue 15 = D-Pro; backbone cyclised head to tail; disulfide Cys3-Cys13) [Intermediate 24] ?
Resp: > 7.00
